Counter-ions that a name gives are not always drawn.
Measured Attribute: pIC50
The scale used: pIC50 is minus the common logarithm of the concentration in molar units.

Hey, PKC-β1 (Homo sapiens, UniProt P05771) data for O=C1NC(=O)C2=C1c1cn(c3ccccc13)CCCCCCn1cc2c2ccccc21 : pIC50 came out at 7.15

Hey, PKC-β1 (Homo sapiens, UniProt P05771) data for COCC1CCCn2cc(c3ccccc32)C2=C(C(=O)NC2=O)c2cn(c3ccccc23)CC1 (stereo not shown) : pIC50 came out at 7.30

Hey, PKC-β1 (Homo sapiens, UniProt P05771) data for O=C1NC(=O)C2=C1c1cn(c3ccccc13)CCC[C@@H](CN1CCCC1)CCn1cc2c2ccccc21 [Example 36r, hydrochloride salt] : pIC50 came out at 8.30

Hey, PKC-β1 (Homo sapiens, UniProt P05771) data for NCC1CCCn2cc(c3ccccc32)C2=C(C(=O)NC2=O)c2cn(c3ccccc23)CC1 (stereo not shown) : pIC50 came out at 8.00

Hey, PKC-β1 (Homo sapiens, UniProt P05771) data for CN(C)CC1CCn2cc(c3ccccc32)C2=C(C(=O)NC2=O)c2cn(c3ccccc23)CCOC1 (stereo not shown) [Example 8, hydrochloride salt] : pIC50 came out at 7.43

Hey, PKC-β1 (Homo sapiens, UniProt P05771) data for O=C1NC(=O)C2=C1c1cn(c3ccccc13)CCCC(CNCc1ccccc1)CCn1cc2c2ccccc21 (stereo not shown) [Example 34, trifluoroacetate salt] : pIC50 came out at 7.00

Hey, PKC-β1 (Homo sapiens, UniProt P05771) data for NC[C@@H]1CCn2cc(c3ccccc32)C2=C(C(=O)NC2=O)c2cn(c3ccccc23)CCO1 : pIC50 came out at 7.32
